Biological target: endogenous CETP from serum (Homo sapiens, UniProt P11597)
Construct: yielding a concentration of approximately 15 nM endogenous CETP in the assay; from tissue; host or cells: human serum (95% of the assay volume)
Sequence (P11597 18-493): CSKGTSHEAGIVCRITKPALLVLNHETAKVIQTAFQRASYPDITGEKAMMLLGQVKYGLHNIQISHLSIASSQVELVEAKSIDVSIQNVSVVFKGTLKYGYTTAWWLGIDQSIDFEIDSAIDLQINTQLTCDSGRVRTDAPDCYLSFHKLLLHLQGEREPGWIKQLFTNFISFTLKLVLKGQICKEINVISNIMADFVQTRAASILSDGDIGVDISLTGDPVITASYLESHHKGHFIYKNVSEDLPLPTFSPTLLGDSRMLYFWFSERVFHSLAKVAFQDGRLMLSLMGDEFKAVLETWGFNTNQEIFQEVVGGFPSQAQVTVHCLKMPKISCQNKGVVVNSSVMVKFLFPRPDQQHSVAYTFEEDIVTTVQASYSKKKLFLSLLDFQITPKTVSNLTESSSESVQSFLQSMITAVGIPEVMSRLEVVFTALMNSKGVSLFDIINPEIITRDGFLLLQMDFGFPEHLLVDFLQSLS
Assay: RTA assay in 95% human serum (95% RTA), CETP-catalyzed CE and TG transfer
Assay type: biochemical
Settings: RTA assay in 95% human serum; read-out: IC50
Method: Reagents and sources are: [3H] cholesteryl oleate (GE #TRK.886), [3H] Triolein (Perkin-Elmer NET-431), Butylated hydroxyl toluene (Aldrich, #D4740-4), DOPC (Sigma, #P6354), Sodium Bromide (Fisher scientific #S255-500), PEG 8000 (Fisher, #BP233-1), and human HDL (Intracel Corp #RP-036). […] Transfer assays are performed in a 96-well v-bottom polypropylene plate. […] After mixing, plates are counted by liquid scintillation. […]
The compounds listed here are annotated with their pIC50.
Would you please state pIC50, meaning minus log10 of the concentration in mol/L, as a bare number?

Use these answered entries as a reference point.
# compound.structure.string, tested.on, observation.type, result
measured = [
    ("COc1ncc(-c2ccc(C(=O)O)cc2C)cc1-c1ccc(C(F)(F)F)cc1[C@@H]1CC[C@H]2[C@@H](c3ccnc(C(F)(F)F)c3)SC(=O)N12", "endogenous CETP from serum (Homo sapiens, UniProt P11597)", "pIC50", 5.40),
    ("COc1ncc(-c2c(C)cc(C(=O)O)cc2C)cc1-c1ccc(C(F)(F)F)cc1[C@@H]1CC[C@H]2[C@@H](c3cc(C(F)(F)F)cc(C(F)(F)F)c3)CC(=O)N12", "endogenous CETP from serum (Homo sapiens, UniProt P11597)", "pIC50", 6.49),
    ("COc1ncc(-c2ccc(C(=O)O)cc2C)cc1-c1ccc(C(F)(F)F)cc1[C@@H]1CC[C@H]2[C@@H](c3cc(F)cc(C(F)(F)F)c3)CC(=O)N12", "endogenous CETP from serum (Homo sapiens, UniProt P11597)", "pIC50", 5.54),
    ("COc1ncc(-c2ccc(C(=O)O)cc2C)cc1-c1ccc(C(F)(F)F)cc1[C@@H]1CC[C@H]2[C@@H](c3cc(F)cc(C(F)(F)F)c3)SC(=O)N12", "endogenous CETP from serum (Homo sapiens, UniProt P11597)", "pIC50", 6.55),
]

Lab note: compound COc1ncc(-c2c(C)cc(C(=O)O)cc2C)cc1-c1ccc(C(F)(F)F)cc1[C@@H]1CC[C@H]2[C@@H](c3cc(C(F)(F)F)cc(C(F)(F)F)c3)SC(=O)N12 tested on endogenous CETP from serum (Homo sapiens, UniProt P11597); recorded pIC50 was 6.79
